# Tested on: Bgl2
# Construct: native extracellular enzyme purified from culture supernatant, extracted from native gel; 230 kDa on native PAGE
# Assay protocol: 4-NPG hydrolysis, absorbance at […] nm, glucose […]
# Type: biochemical, Neofusicoccum parvum
# Condition description: product inhibition; substrate 4-NPG; standard assay described as 50 mM sodium acetate pH 5.0, 55 °C
Quantity: IC50 (mM)

Compound: OC[C@H]1OC(O)[C@H](O)[C@@H](O)[C@@H]1O (stereo partly shown)
Numeric value: 22.6
